# target-or-test-system: Aldehyde dehydrogenase 1A1 (Homo sapiens, UniProt P00352)
# Sequence (P00352 whole entry): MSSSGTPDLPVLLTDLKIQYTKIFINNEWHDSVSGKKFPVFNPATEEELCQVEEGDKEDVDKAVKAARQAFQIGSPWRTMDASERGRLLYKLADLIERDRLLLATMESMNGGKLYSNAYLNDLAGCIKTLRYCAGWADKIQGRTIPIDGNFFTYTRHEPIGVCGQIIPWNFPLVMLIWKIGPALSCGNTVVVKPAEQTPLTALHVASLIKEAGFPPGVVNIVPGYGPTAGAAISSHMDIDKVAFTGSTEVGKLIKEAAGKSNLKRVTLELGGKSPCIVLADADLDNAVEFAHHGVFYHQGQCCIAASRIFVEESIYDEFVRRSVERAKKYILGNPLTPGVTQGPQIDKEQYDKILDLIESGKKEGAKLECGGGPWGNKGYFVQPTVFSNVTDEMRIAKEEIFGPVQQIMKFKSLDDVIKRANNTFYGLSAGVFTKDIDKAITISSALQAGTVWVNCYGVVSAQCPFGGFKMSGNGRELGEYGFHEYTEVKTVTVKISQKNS
Here, each record is paired with measured IC50 data.
quantity-measured: IC50 (nM)

>>> value_measured("CC(=O)c1cc2c(o1)C(=O)c1ccccc1C2=O")
425
>>> value_measured("OCCN1CCN(CCCN2c3ccccc3Sc3ccc(Cl)cc32)CC1")
524
>>> value_measured("CC(OC(=O)CCCC(=O)N(CCS(C)(=O)=O)Cc1ccc(-c2ccc3ncnc(Nc4ccc(OCc5cccc(F)c5)c(Cl)c4)c3c2)o1)c1cc2c(o1)C(=O)c1ccccc1C2=O (centres undefined)")
135
>>> value_measured("CS(=O)(=O)CCN(Cc1ccc(-c2ccc3ncnc(Nc4ccc(OCc5cccc(F)c5)c(Cl)c4)c3c2)o1)C(=O)CCC(=O)OCCN1CCN(CCCN2c3ccccc3Sc3ccc(Cl)cc32)CC1")
86.4

* * *

Consider the following compounds and their measured logP readings.
# test-name: Octanol/water partition coefficient, log P of the compound by shake flask method based thermodynamic solubility assay
# Type: physicochemical
quantity-measured: logP

>>> value_measured("CC(OC(=O)CCCC(=O)N(CCS(C)(=O)=O)Cc1ccc(-c2ccc3ncnc(Nc4ccc(OCc5cccc(F)c5)c(Cl)c4)c3c2)o1)c1cc2c(o1)C(=O)c1ccccc1C2=O (configuration not stated)")
2.15
>>> value_measured("CS(=O)(=O)CCN(Cc1ccc(-c2ccc3ncnc(Nc4ccc(OCc5cccc(F)c5)c(Cl)c4)c3c2)o1)C(=O)CCC(=O)OCCN1CCN(CCCN2c3ccccc3Sc3ccc(Cl)cc32)CC1")
2.49

* * *

# target-or-test-system: Epidermal growth factor receptor (Homo sapiens)
# Sequence (P00533 whole entry): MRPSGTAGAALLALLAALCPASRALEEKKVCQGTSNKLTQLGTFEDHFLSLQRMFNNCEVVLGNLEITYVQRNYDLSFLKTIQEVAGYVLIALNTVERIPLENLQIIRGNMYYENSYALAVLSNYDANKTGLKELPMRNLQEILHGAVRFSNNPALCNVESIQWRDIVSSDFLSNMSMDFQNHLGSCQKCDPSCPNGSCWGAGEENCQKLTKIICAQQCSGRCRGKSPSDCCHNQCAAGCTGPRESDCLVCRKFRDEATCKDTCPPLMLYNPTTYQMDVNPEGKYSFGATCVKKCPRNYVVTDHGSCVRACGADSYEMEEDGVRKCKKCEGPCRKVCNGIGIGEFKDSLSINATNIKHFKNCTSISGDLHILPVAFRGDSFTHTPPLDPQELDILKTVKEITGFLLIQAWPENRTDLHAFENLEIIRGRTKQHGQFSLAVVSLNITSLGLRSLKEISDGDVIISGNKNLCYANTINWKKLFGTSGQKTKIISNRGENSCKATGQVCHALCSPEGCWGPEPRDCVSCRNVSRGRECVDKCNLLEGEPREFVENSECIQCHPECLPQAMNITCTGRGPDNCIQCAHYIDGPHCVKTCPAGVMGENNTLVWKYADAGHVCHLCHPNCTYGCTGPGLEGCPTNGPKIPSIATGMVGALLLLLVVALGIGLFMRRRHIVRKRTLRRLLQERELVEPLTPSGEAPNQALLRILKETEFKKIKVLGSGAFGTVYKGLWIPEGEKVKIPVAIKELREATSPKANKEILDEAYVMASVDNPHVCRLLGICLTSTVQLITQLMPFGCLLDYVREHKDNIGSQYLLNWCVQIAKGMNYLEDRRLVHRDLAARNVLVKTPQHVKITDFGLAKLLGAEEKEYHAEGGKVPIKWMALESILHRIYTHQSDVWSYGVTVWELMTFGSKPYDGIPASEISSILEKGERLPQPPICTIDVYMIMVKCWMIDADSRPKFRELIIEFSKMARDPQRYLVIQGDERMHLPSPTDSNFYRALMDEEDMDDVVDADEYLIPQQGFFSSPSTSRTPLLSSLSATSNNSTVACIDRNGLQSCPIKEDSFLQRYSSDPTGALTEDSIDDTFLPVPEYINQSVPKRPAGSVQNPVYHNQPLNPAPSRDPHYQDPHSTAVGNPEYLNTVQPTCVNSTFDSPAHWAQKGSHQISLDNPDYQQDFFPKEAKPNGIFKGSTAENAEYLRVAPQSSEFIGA
quantity-measured: IC50 (nM)

>>> value_measured("CC(OC(=O)CCCC(=O)N(CCS(C)(=O)=O)Cc1ccc(-c2ccc3ncnc(Nc4ccc(OCc5cccc(F)c5)c(Cl)c4)c3c2)o1)c1cc2c(o1)C(=O)c1ccccc1C2=O (stereo unspecified)")
7.36
